Target: UniProtKB P03372
Assay: Western blotting analysis of ER protein degradation in T47D cell line
Type: cell-based
Design: western blotting detection of the level of intracellular ER protein; endogenous in cells; host or cells: T47D
Details: degradation of ER protein, T47D cells, drug treatment for 16 hours, Western blot gray values vs DMSO control; read-out: DC50 (nM)/T47Dcell line
recorded_metric: DC50

Prompt line: DC50 of Cc1ncsc1-c1ccc(CNC(=O)[C@@H]2C[C@@H](O)CN2C(=O)[C@@H](NC(=O)CCN2CCN(CCC(=O)NCCOc3ccc(C(=C(CCCl)c4ccccc4)c4ccc(O)cc4)cc3)CC2)C(C)(C)C)cc1 on UniProtKB P03372?
Response line: < 200 nM

---

Biological target: ER protein (Homo sapiens)
Test: Western blotting analysis of ER protein degradation in T47D cell line
Assay type: cell-based
Parameters: western blotting detection of the level of intracellular ER protein; endogenous in cells; host or cells: T47D
Conditions: degradation of ER protein, T47D cells, drug treatment for 16 hours, Western blot gray values vs DMSO control; read-out: DC50 (nM)/T47Dcell line
DC50 for assorted compounds

| compound | DC50 |
| --- | --- |
| Cc1ncsc1-c1ccc(CNC(=O)[C@@H]2C[C@@H](O)CN2C(=O)[C@@H](NC(=O)CCOCCOCCOCCOCCC(=O)NCCOc2ccc(C(=C(CCCl)c3ccccc3)c3ccc(O)cc3)cc2)C(C)(C)C)cc1 | < 10 nM |
| Cc1ncsc1-c1ccc(CNC(=O)[C@@H]2C[C@@H](O)CN2C(=O)[C@@H](NC(=O)CCCCCCC(=O)N(C)CCOc2ccc(/C(=C(/CCCl)c3ccccc3)c3ccccc3)cc2)C(C)(C)C)cc1 | < 50 nM |
| Cc1ncsc1-c1ccc(CNC(=O)[C@@H]2C[C@@H](O)CN2C(=O)[C@@H](NC(=O)CCCCCCC(=O)N2CCN(CCOc3ccc(C(=C(CCCl)c4ccccc4)c4ccc(O)cc4)cc3)CC2)C(C)(C)C)cc1 | < 10 nM |
| CCC(=C(c1ccc(O)cc1)c1ccc(OCCNC(=O)CCOCCOCCOCCC(=O)N[C@H](C(=O)N2C[C@H](O)C[C@H]2C(=O)NCc2ccc(-c3scnc3C)cc2)C(C)(C)C)cc1)c1ccc(O)cc1 | < 50 nM |

Shifting focus to the compound that follows.
Prompt line: Need DC50 of CCC(=C(c1ccc(O)cc1)c1ccc(OCCNC(=O)CCN2CCN(CCNc3cccc4c3C(=O)N(C3CCC(=O)NC3=O)C4=O)CC2)cc1)c1ccc(O)cc1 (centres unmarked) , thanks.
Response line: < 50 nM

---

Biological target: ER protein (Homo sapiens, UniProt P03372)
Sequence (P03372 whole entry): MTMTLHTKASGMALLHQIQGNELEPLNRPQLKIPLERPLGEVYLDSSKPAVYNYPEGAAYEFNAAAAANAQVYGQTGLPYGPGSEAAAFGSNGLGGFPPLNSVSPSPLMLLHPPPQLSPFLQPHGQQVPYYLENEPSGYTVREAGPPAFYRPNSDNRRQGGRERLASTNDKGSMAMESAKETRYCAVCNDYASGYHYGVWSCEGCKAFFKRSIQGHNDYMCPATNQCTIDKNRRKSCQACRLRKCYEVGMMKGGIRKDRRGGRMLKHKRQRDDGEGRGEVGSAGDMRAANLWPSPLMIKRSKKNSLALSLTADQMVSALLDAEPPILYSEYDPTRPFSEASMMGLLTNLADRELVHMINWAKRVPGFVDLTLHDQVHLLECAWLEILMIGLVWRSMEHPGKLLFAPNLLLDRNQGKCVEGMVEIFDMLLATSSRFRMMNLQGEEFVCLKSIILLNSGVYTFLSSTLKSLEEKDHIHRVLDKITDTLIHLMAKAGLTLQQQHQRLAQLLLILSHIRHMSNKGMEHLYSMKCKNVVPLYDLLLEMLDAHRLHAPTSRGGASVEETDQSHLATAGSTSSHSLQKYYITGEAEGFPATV
Assay: Western blotting analysis of ER protein degradation in T47D cell line
Assay type: cell-based
Parameters: western blotting detection of the level of intracellular ER protein; endogenous in cells; host or cells: T47D
Conditions: degradation of ER protein, T47D cells, drug treatment for 16 hours, Western blot gray values vs DMSO control; read-out: DC50 (nM)/T47Dcell line
recorded_metric: DC50

| compound | DC50 |
| --- | --- |
| Cc1ncsc1-c1ccc(CNC(=O)[C@@H]2C[C@@H](O)CN2C(=O)[C@@H](NC(=O)CCCCCCCC(=O)NCCOc2ccc(C(=C(CCCl)c3ccccc3)c3ccc(O)cc3)cc2)C(C)(C)C)cc1 [SIAIS208035] | < 10 nM |
| CCC(=C(c1ccc(O)cc1)c1ccc(OCCNC(=O)CCCCCCCCC(=O)N[C@H](C(=O)N2C[C@H](O)C[C@H]2C(=O)NCc2ccc(-c3scnc3C)cc2)C(C)(C)C)cc1)c1ccc(O)cc1 [SIAIS208168] | < 1 nM |
| Cc1ncsc1-c1ccc(CNC(=O)[C@@H]2C[C@@H](O)CN2C(=O)[C@@H](NC(=O)CCOCCOCCOCCC(=O)N2CCN(CCOc3ccc(C(=C(CCCl)c4ccccc4)c4ccc(O)cc4)cc3)CC2)C(C)(C)C)cc1 [SIAIS251050] | < 50 nM |
| Cc1ncsc1-c1ccc(CNC(=O)[C@@H]2C[C@@H](O)CN2C(=O)[C@@H](NC(=O)CCCCCCCCCCCCC(=O)NCCOc2ccc(C(=C(CCCl)c3ccccc3)c3ccc(O)cc3)cc2)C(C)(C)C)cc1 [SIAIS208038] | < 50 nM |
| Cc1ncsc1-c1ccc(CNC(=O)[C@@H]2C[C@@H](O)CN2C(=O)[C@@H](NC(=O)CCCCCCCCC(=O)N2CCN(CCOc3ccc(C(=C(CCCl)c4ccccc4)c4ccc(O)cc4)cc3)CC2)C(C)(C)C)cc1 [SIAIS251047] | < 50 nM |
| Cc1ncsc1-c1ccc(CNC(=O)[C@@H]2C[C@@H](O)CN2C(=O)[C@@H](NC(=O)CCCCCCCC(=O)N(C)CCOc2ccc(/C(=C(/CCCl)c3ccccc3)c3ccccc3)cc2)C(C)(C)C)cc1 [SIAIS180035] | < 200 nM |

Prompt line: Need DC50 of O=C(CCCCNc1cccc2c1C(=O)N(C1CCC(=O)NC1=O)C2=O)NCCOc1ccc(C(=C(CCCl)c2ccccc2)c2ccc(O)cc2)cc1 (stereo not drawn) [SIAIS208144] , thanks.
Response line: < 100 nM

Prompt line: Can you check Cc1ncsc1-c1ccc(CNC(=O)[C@@H]2C[C@@H](O)CN2C(=O)[C@@H](NC(=O)CCCCCCCCC(=O)NCCOc2ccc(/C(=C(/CCCl)c3ccccc3)c3ccc(O)cc3)cc2)C(C)(C)C)cc1 [SIAIS208036] next?
Response line: < 10 nM

Prompt line: Can you check Cc1ncsc1-c1ccc(CNC(=O)[C@@H]2C[C@@H](O)CN2C(=O)[C@@H](NC(=O)CCc2ccc(CCC(=O)NCCOc3ccc(C(=C(CCCl)c4ccccc4)c4ccc(O)cc4)cc3)cc2)C(C)(C)C)cc1 [SIAIS208127] next?
Response line: < 100 nM
